assay: glucagon-like peptide 1 release enhancers, primary assay, NCI-H716 cell line, NPC library (AID 1117341); conditions: NCI-H716 cells, at 10 µM, hits give high values; note: reference of the scale not given here
ASSAY_ENDPOINT: GLP1 secretion stimulation (%)
Kindly answer with a numeric value in %, unit omitted.

Looking up `CN1CCC(=C2c3ccccc3CCc3cccnc32)CC1` , I found its GLP1 secretion stimulation recorded as 2.5

Looking up `CC(C)NC[C@@H](O)COc1ccc(CC(N)=O)cc1` , I found its GLP1 secretion stimulation recorded as 3.3

Looking up `O=C1OC2(c3ccc(O)cc3Oc3cc(O)ccc32)c2ccccc21` , I found its GLP1 secretion stimulation recorded as -2.3

Looking up `NCCC(O)(P(=O)(O)O)P(=O)(O)O` , I found its GLP1 secretion stimulation recorded as 1.4

Looking up `O=c1cc(O)c(Cl)c[nH]1` , I found its GLP1 secretion stimulation recorded as -0.1
